# System: rodent lifetime carcinogenesis bioassay, tumor incidence TD50
# experimental_protocol: carcinogenic potency in animals, long-term in vivo studies, CPDB compilation (AID 1745844)
# condition_description: mouse; strain B6C3F1; males; by gavage; site: any site (literature study); lesion: several types; types named in the paper; dosed 103 weeks; study length 105 weeks
Activity calls are given as the source filed them. How the calls were made is not given here.
We begin with a simple list: items and their reported TD50.
experimental_endpoint: TD50

>>> df
               smiles_input  experimental_endpoint       recorded_measurement
0  Nc1cc([N+](=O)[O-])ccc1O                   TD50              582 mg/kg/day
1                Clc1ccccc1                   TD50  60.1 mg/kg/day (inactive)
2               C=CC(=O)NCO                   TD50             22.3 mg/kg/day

---

# Tested on: rodent lifetime carcinogenesis bioassay, tumor incidence TD50
# experimental_protocol: carcinogenic potency in animals, long-term in vivo studies, CPDB compilation (AID 1745844)
# condition_description: rat; strain Fischer 344; males; by gavage; site: any site (literature study); lesion: several types; types named in the paper; dosed 103 weeks; study length 105 weeks
experimental_endpoint: TD50 (mg/kg/day)

>>> print(df.to_string())
                smiles_input                           target_of_assay  experimental_endpoint       unit  recorded_measurement
0  COc1c2occc2cc2ccc(=O)oc12  rodent lifetime carcinogenesis bioassay, tumor incidence TD50                   TD50  mg/kg/day                  16.1
1   Nc1cc([N+](=O)[O-])ccc1O  rodent lifetime carcinogenesis bioassay, tumor incidence TD50                   TD50  mg/kg/day                  84.1
2       CC1=CC(=O)CC(C)(C)C1  rodent lifetime carcinogenesis bioassay, tumor incidence TD50                   TD50  mg/kg/day                   237
3                 O=Cc1ccco1  rodent lifetime carcinogenesis bioassay, tumor incidence TD50                   TD50  mg/kg/day                   150
4                C=CC(=O)NCO  rodent lifetime carcinogenesis bioassay, tumor incidence TD50                   TD50  mg/kg/day                  3120

---

# Tested on: rodent lifetime carcinogenesis bioassay, tumor incidence TD50
# experimental_protocol: carcinogenic potency in animals, long-term in vivo studies, CPDB compilation (AID 1745844)
# condition_description: mouse; strain B6C3F1; males; oral dosing; site: liver; lesion: hepatoma; dosed 76 weeks; study length 76 weeks
Activity calls are given as the source filed them. The rule behind the calls is not given here.
experimental_endpoint: TD50

In [3]: df
Out[3]:
                                   compound                           target_of_assay  experimental_endpoint       recorded_measurement
0  CCCOC(=O)C1c2cc3c(cc2CC(C)C1C(=O)OCCC)OCO3 (stereo not given)  rodent lifetime carcinogenesis bioassay, tumor incidence TD50                   TD50  1050 mg/kg/day (inactive)
1          O=S(=O)(Oc1ccc(Cl)cc1Cl)c1ccccc1  rodent lifetime carcinogenesis bioassay, tumor incidence TD50                   TD50   266 mg/kg/day (inactive)
2                 c1ccc2sc(SNC3CCCCC3)nc2c1  rodent lifetime carcinogenesis bioassay, tumor incidence TD50                   TD50  92.7 mg/kg/day (inactive)
3  OC[C@@H](O)[C@H]1O[C@@H]2O[C@H](C(Cl)(Cl)Cl)O[C@@H]2[C@H]1O  rodent lifetime carcinogenesis bioassay, tumor incidence TD50                   TD50  7.27 mg/kg/day (inactive)
4                 CC(C)Oc1ccc(Nc2ccccc2)cc1  rodent lifetime carcinogenesis bioassay, tumor incidence TD50                   TD50   679 mg/kg/day (inactive)
5                     Oc1ccc(OCc2ccccc2)cc1  rodent lifetime carcinogenesis bioassay, tumor incidence TD50                   TD50   382 mg/kg/day (inactive)
6                      Cc1cc(O)cc(C)c1N(C)C  rodent lifetime carcinogenesis bioassay, tumor incidence TD50                   TD50   247 mg/kg/day (inactive)
7  CC(=O)[O][Sn]([c]1ccccc1)([c]1ccccc1)[c]1ccccc1  rodent lifetime carcinogenesis bioassay, tumor incidence TD50                   TD50   407 mg/kg/day (inactive)
8          S=C(SSSSSSC(=S)N1CCCCC1)N1CCCCC1  rodent lifetime carcinogenesis bioassay, tumor incidence TD50                   TD50   113 mg/kg/day (inactive)
9   O=S(=O)(c1ccc(Cl)cc1)c1cc(Cl)c(Cl)cc1Cl  rodent lifetime carcinogenesis bioassay, tumor incidence TD50                   TD50  46.2 mg/kg/day (inactive)
